# targetOfAssay: PaMTIP (Pseudomonas aeruginosa (strain ATCC 15692 / DSM 22644 / CIP 104116 / JCM 14847 / LMG 12228 / 1C / PRS 101 / PAO1), UniProt Q9HZK1)
# methodDescription: biochemical
# testContext: Ki
assayEndpoint: Ki (nM)
# output: bare number, implied unit nM

Report measured Ki; entry is CSCC(CO)(CO)NCc1c[nH]c2c(=O)[nH]cnc12
19

###

# targetOfAssay: PaMTIP (Pseudomonas aeruginosa (strain ATCC 15692 / DSM 22644 / CIP 104116 / JCM 14847 / LMG 12228 / 1C / PRS 101 / PAO1), UniProt Q9HZK1)
# methodDescription: biochemical
# testContext: Ki*, second tighter binding phase of slow-onset inhibition, values ± S.E.
assayEndpoint: Ki (nM)
Write it as a number; the unit nM goes unstated.

Output measured Ki for this item: CSC[C@H]1CN(Cc2c[nH]c3c(=O)[nH]cnc23)C[C@@H]1O
0.34

The origin of these recorded values is patent US9290501B2.
